Items are presented alongside their recorded IC50.
- TESTED_TARGET: MMP-13 (Homo sapiens)
- Construct: made in house; host or cells: baculovirus / insect cells
- PROCEDURE_TEXT: biochemical
- CONDITION_PARAMETERS: recombinant human MMP-13, MCA peptide substrate 4 μM, pH 7.5, room temperature; read-out: MMP-13 IC50
VALUE_KIND: IC50 (nM)

INSERT INTO results (compound, comparator, measured_number) VALUES
  ('O=C(NO)C1(S(=O)(=O)c2ccc(N3CC4CC3CN4Cc3ccccc3)cc2)CCOCC1 (stereo not drawn)', '>', 10000),
  ('CS(=O)(=O)N1CCC(C(=O)NO)(S(=O)(=O)c2ccc(Oc3ccc(OC(F)(F)F)cc3)cc2)CC1', '=', 0.3),
  ('O=C(NO)C1(S(=O)(=O)c2ccc(Oc3ccc(OC(F)(F)F)cc3)cc2)CCN(S(=O)(=O)c2cccc(C(F)(F)F)c2)CC1', '=', 1.6),
  ('O=C(NO)C1(S(=O)(=O)c2ccc(N3CCC(Oc4ccc([N+](=O)[O-])c(F)c4)CC3)cc2)CCOCC1', '=', 40),
  ('O=C(NO)C1(S(=O)(=O)c2ccc(Oc3ccc(OC(F)(F)F)cc3)cc2)CCN(C2=NCCN2)CC1', '=', 1.1),
  ('CC(C)(C)c1ccc(C(=O)C2CCN(c3ccc(S(=O)(=O)C4(C(=O)NO)CCOCC4)cc3)CC2)cc1', '=', 12.2),
  ('O=C(NO)C1(S(=O)(=O)c2ccc(Oc3ccc(OC(F)(F)F)cc3)cc2)CCN(c2ccccn2)CC1', '=', 1.4),
  ('O=C(NO)C1(S(=O)(=O)c2ccc(N3CCCN(S(=O)(=O)c4ccc(C(F)(F)F)cc4)CC3)cc2)CCOCC1', '=', 18.1),
  ('CC(C)NC(=O)OC1CCN(c2ccc(S(=O)(=O)C3(C(=O)NO)CCOCC3)cc2)CC1', '=', 14),
  ('Cc1cccc(N2CCN(c3ccc(S(=O)(=O)C4(C(=O)NO)CCOCC4)cc3)CC2)c1C', '=', 61),
  ('O=C(NO)C1(S(=O)(=O)c2ccc([C@H]3CC[C@H](c4ccccc4)CC3)cc2)CCOCC1', '=', 21.1),
  ('O=C(NO)C1(S(=O)(=O)c2ccc(OC3CN(S(=O)(=O)Cc4ccccc4)C3)cc2)CCOCC1', '=', 4.5);
